Every entry's value here was drawn from paper PMC3466212.

ASSAYED TARGET: F331W AChE1 (Culex pipiens, UniProt Q86GC8, F457W)
TEST PARAMETERS: F331W OP-insensitive AChE1
Assignment: determine reported pIC50 for the given compounds.
One number for each entry, as −log10 of the molar value.

Consider the worked cases shown below.
>>> observed("Cc1ccc(C=C2C(=O)NC(=O)N(c3ccccc3)C2=O)o1 [PTF-3]")
4.75
>>> observed("Cc1cccc(N2C(=O)C(=Cc3ccc(C)o3)C(=O)NC2=S)c1 [PTF-25]")
4.50
>>> observed("COc1cccc(N2C(=O)C(=Cc3ccc(C)o3)C(=O)NC2=S)c1 [PTF-29]")
4.95
>>> observed("Cc1ccc(C=C2C(=O)N(C)C(=O)N(C)C2=O)o1 [PTF-39]")
5.06
>>> observed("Cc1ccc(C=C2C(=O)NC(=O)N(c3ccc(Cl)cc3)C2=O)o1 [PTF-20]")
5.08

Okay, now this compound:
Need pIC50, item COc1ccc(N2C(=O)NC(=O)C(=Cc3ccc(C)o3)C2=O)cc1 [PTF-10]
4.05

====

ASSAYED TARGET: WT AChE1 (Culex pipiens)
ASSAY EXPLANATION: AChE assay (Ellman), dose-response on recombinant WT AChE1
Type: biochemical
Set-up: made in house; host or cells: Drosophila S2 cells
TEST PARAMETERS: recombinant wild-type C. pipiens AChE1; 15 min incubation; acetylthiocholine; read-out: IC50 WT
QUANTITY: pIC50
Answers are plain numbers, as −log10 of the molar value.

Consider the worked cases shown below.
>>> observed("Cc1ccc(C=C2C(=O)NC(=O)N(c3cccc(Cl)c3Cl)C2=O)o1")
5.30
>>> observed("Cc1ccc(C=C2C(=O)NC(=O)N(c3ccc(C(=O)O)cc3)C2=O)o1")
5.05
>>> observed("CN1C(=O)C(=Cc2ccc(N(C)C)o2)C(=O)N(C)C1=O")
3.76
>>> observed("CCOc1ccc(N2C(=O)NC(=O)C(=Cc3ccc(C)o3)C2=O)cc1")
3.63
>>> observed("O=C1NC(=O)N(c2ccccc2)C(=O)C1=Cc1ccc(-c2cccc(C(=O)O)c2)s1")
4.36
>>> observed("Cc1ccc(C=C2C(=O)NC(=O)N(c3ccccc3F)C2=O)o1")
5.28
>>> observed("CCc1ccc(N2C(=O)C(=Cc3ccc(C)o3)C(=O)NC2=S)cc1")
5.05
>>> observed("O=C1NC(=S)N(c2ccccc2)C(=O)C1=Cc1ccco1")
3.82

Need pIC50, item Cc1cccc(N2C(=O)C(=Cc3ccc(C)o3)C(=O)NC2=S)c1
3.35

====

ASSAYED TARGET: WT AChE1 (Culex pipiens, UniProt Q86GC8)
ASSAY EXPLANATION: AChE assay (Ellman), dose-response on recombinant WT AChE1
Type: biochemical
Set-up: made in house; host or cells: Drosophila S2 cells
TEST PARAMETERS: recombinant wild-type C. pipiens AChE1; 15 min incubation; acetylthiocholine; read-out: IC50 WT
QUANTITY: pIC50
One number for each entry, as −log10 of the molar value.

>>> observed("O=C1NC(=O)N(c2ccccc2)C(=O)C1=Cc1ccc(-c2ccc(C(=O)O)cc2)o1")
4.95
>>> observed("CN1C(=O)C(=Cc2ccco2)C(=O)N(C)C1=O")
2.92

Okay, now this compound:
Need pIC50, item COc1ccc(N2C(=O)C(=Cc3ccc(C)o3)C(=O)NC2=S)cc1
5.77
